system: S. epidermidis; assay: Tier 1 Anaerobic MIC Assay; format: cell-based, Staphylococcus epidermidis (clinical isolate); conditions: Staphylococcus epidermidis; anaerobic, 37° C. overnight, O.D. 600; read-out: microbial inhibition concentration (MIC)
property.measured: MIC (µg/mL)
Report only the number, with the unit µg/mL understood.

INSERT INTO assay_data (compound, recorded_result) VALUES
  ('CC(C)=CCCC(C)=CC=O', 1500),
  ('CC(C)=CCCC(C)=CCCC(C)=CCO', 5940),
  ('COC(=O)CCC(=O)OC [dimethyl succinate]', 3060);

**Query** Field request: MIC | item: `C=CCc1ccc(O)c(OC)c1`
**Result** 773
